B1: glmS ribozyme (parent)
chain: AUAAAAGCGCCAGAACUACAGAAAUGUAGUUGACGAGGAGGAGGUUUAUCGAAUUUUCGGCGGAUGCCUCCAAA

Variants of: B1
PROTOCOL: KM; higher = weaker cofactor use; RNA array
ASSAY_SETUP: with glucosamine-6-phosphate
MEASURED_ENDPOINT: KM (µM)
Reply with just the number (in µM).

// worked examples, KM included
{"VARIANT_NAME": "U30C A42G", "KM (µM)": 1310}
{"VARIANT_NAME": "G13A C70U", "KM (µM)": 2410}
{"VARIANT_NAME": "A52G C67A", "KM (µM)": 1300}
{"VARIANT_NAME": "A53U C70G", "KM (µM)": 168}
{"VARIANT_NAME": "C10G G60C", "KM (µM)": 2180}
{"VARIANT_NAME": "U54A G66U", "KM (µM)": 1460}

Ask | I'd like to know its KM. The variant in question is G13U U30A
Reply | 728

Ask | I'd like to know its KM. The variant in question is A15G U47G U55A
Reply | 1860

Ask | I'd like to know its KM. The variant in question is A33U C67A
Reply | 4870

Ask | I'd like to know its KM. The variant in question is A42G A64U
Reply | 2880

Ask | I'd like to know its KM. The variant in question is A12G U69C
Reply | 3900

Ask | I'd like to know its KM. The variant in question is A14C A15G G40U
Reply | 5380
